Recorded Emax by entry
Molecular target: Glucose-dependent insulinotropic receptor (Homo sapiens)
Assay: Intrinsic activity at human GPR119 expressed in HEK293 cells co-expressing Flp-In-T-Rex assessed as cAMP accumulation after 60 mins relative to propan-2-yl 4-({6-[(2-fluoro-4-methanesulfonylphenyl)amino]pyrimidin-4-yl}oxy)piperidine-1-carboxylate
Assay type: functional, cell-based
Output spec: scalar in %, unitless text.

Check out these entries, answers already filled in.
{"Compound": "CCCS(=O)(=O)N1CC=C(c2ccc3c(c2)CC(C2CCN(c4ncc(C5CC5)cn4)CC2)O3)CC1 (racemic)", "Emax, %": 85}
{"Compound": "CCCc1cnc(N2CCC(C3Cc4c(F)c(C5=CCN(S(=O)(=O)CCC)CC5)cc(F)c4O3)CC2)nc1 (racemic)", "Emax, %": 119}
{"Compound": "CCCc1cnc(N2CCC(C3(C)Cc4cc(C5=CCN(S(=O)(=O)CCCO)CC5)ccc4O3)CC2)nc1 (racemic)", "Emax, %": 78}

Consider now this further compound.
What does the record list as Emax for CCCS(=O)(=O)N1CC=C(c2ccc3c(c2)CC(C2CCN(Cc4ccccc4)CC2)O3)CC1 (racemic) ?
88
